Test system: Eubacterium rectale
Experiment: growth AUC relative to DMSO control (median of replicates) (fraction); higher = more growth (less inhibition), active = hit call of the paper;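 active = AUC reduced over 20% with Padj below 0.05 in at least 2 of 3 replicates; inactive = otherwise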
Conditions: 20 µM; 24 h
Outcomes you can answer with include only these: active, inactive

CCc1cc(C(=O)O)cc(CC)c1C1C(=O)N2CCOCCN2C1=O    inactive
[O-][n+]1nc(-n2ccnc2)nc2ccc(Cl)cc21    inactive
COc1cc(Cl)ccc1Oc1ccc(Cl)cc1Cl    inactive

Can you look up the reported call for COc1ccccc1C(=O)NS(=O)(=O)c1ccc(C(=O)NC2CC2)cc1 for me?
inactive

What did this assay record as the result for CCCCCCCCSCCO ?
inactive

// return assay outcome for CCNc1nc(NC(C)(C)C)[nH]c(=O)n1
inactive

What call does the record list for Oc1ccc2ccccc2c1N=Nc1ccccc1 ?
inactive

Hello, I am checking results. What call was entered for Nc1ccc(S(=O)(=O)Nc2nccs2)cc1 ?
inactive

Per the assay record, what outcome was assigned to O=C(O)c1cccc2nnsc12 ?
inactive

I would be grateful if you could indicate the recorded call for Cc1cccc(C)c1O .
inactive

Tell me the assay call for CC(C)CCCCCCc1ccc(O)cc1 please.
inactive

* * *

Test system: Escherichia coli IAI1
Test: growth AUC relative to DMSO control (median of replicates) (fraction); higher = more growth (less inhibition), active = hit call of the paper
Conditions: 20 µM; 24 h
measure_name: growth AUC
No unit in the answer, only the number.

Sample answers from the record:
CCc1cccc(CC)c1N(COC)C(=O)C(=O)O    0.999
O.O=C(Nc1ccc(Cl)c(Cl)c1)Nc1cc(Cl)ccc1Oc1ccc(Cl)cc1S(=O)(=O)[O-].[Na+]    1.03
CC(C)c1ccccc1    0.999
COc1cc(OC)nc(NC(=O)NS(=O)(=O)c2c(Cl)nc3ccccn23)n1    1.01
COC1CCC2(CC1)NC(=O)C(c1cc(C)ccc1C)C2O (stereo unspecified)    1.03
ClC=C(c1ccc(Cl)cc1)c1ccc(Cl)cc1    0.977
CCOC(=O)[C@@H](C)Oc1ccc(Oc2cnc3cc(Cl)ccc3n2)cc1    1.01
CP(=O)(O)CCC(=O)O    0.999
CCN(CC)C(=O)c1cccc(C)c1    1.01
CC(C)(NC(=O)NCc1ccccc1Cl)c1ccccc1    1.03

Then this compound:
Query (compound): CCNc1nc(N)nc(Cl)n1 ; field requested: growth AUC
1

* * *

System: Parabacteroides merdae
Test: growth AUC relative to DMSO control (median of replicates) (fraction); higher = more growth (less inhibition), active = hit call of the paper;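 active = AUC reduced over 20% with Padj below 0.05 in at least 2 of 3 replicates; inactive = otherwise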
Conditions: 20 µM; 24 h
Outcome (select one): TRUE (active), FALSE (inactive)

Use the examples below as a reference point.
Cn1cc(C(=O)Nc2ccccc2-c2cc(F)c(F)c(F)c2)c(C(F)F)n1    FALSE
O=C(Nc1ccc(F)cc1)c1cccc(Oc2cccc(C(F)(F)F)c2)n1    FALSE
CC(=O)Oc1c(Cl)c(Cl)c(Cl)c(Cl)c1Cl    TRUE
COc1cc(OC)nc(NC(=O)NS(=O)(=O)Nc2ccccc2C(=O)N(C)C)n1    FALSE
COC(=O)c1ccc(C)cc1C1=NC(C)(C(C)C)C(=O)N1 (racemic)    FALSE
CCCCCC(C)OC(=O)COc1ccc(Cl)c2cccnc12 (stereo not given)    FALSE

I would be grateful if you could indicate the recorded call for COc1ccc(Oc2ccc(NC(=O)N(C)C)cc2)cc1 .
FALSE

Assay result, entry O=C(Nc1ccc(Cl)cc1C(O)c1ccccc1)c1ccncc1 (stereo not given) — outcome?
FALSE

GET /call?item= O=C(O)Cc1c[nH]c2ccccc12 returns the recorded outcome of this test.
FALSE

Name the outcome recorded for CNC(=O)Sc1ccc(OS(C)(=O)=O)cc1 in the assay.
FALSE
